TESTED_TARGET: activated EGFR kinase (Homo sapiens, UniProt P00533)
Construct: DNA encoding residues 672-998 of human EGFR was cloned into pFAST BAC HT; made in house; host or cells: Sf9 insect cells (baculovirus, pFAST BAC HT; b247 prints 'SD cells')
METHOD_NOTES: Inhibition of activated EGFR kinase (kinase assay with kinase domain attached to vesicles)
Assay type: biochemical
CONDITION_SET: read-out: IC50 inhibiting activated EGFR kinase
METRIC: IC50

Recorded result, KSLPSYLNGVMPPTQSFAPDPKYVSS [40-mer peptide] , IC50: ~10 µM
